Assay: NCI Yeast Anticancer Drug Screen. Data for the wt2 strain (AID 169);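 note: 0% = growth of vehicle-treated yeast cultures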
Settings: S. cerevisiae wt2 strain growth inhibition; at 3.7 µM; active compounds read high
Compounds without any hit were thinned out: in the full panel of roughly 79,000, 15% have a hit.
PARAMETER: growth inhibition (%)
Answer in %, number only, no unit symbol.

**Query** Consider the compound CCOC(=O)c1[nH]n(-c2ccccc2)c(=O)c1C=NC(=S)C(N)=S and give its measured growth inhibition.
**Result** 0

**Query** Proceed to COc1ccc(C/C=N/Nc2ccc([N+](=O)[O-])cc2)cc1OC
**Result** -1

**Query** Proceed to COc1cc(O)c2c(c1O)C(=O)c1cc(C)ncc1C2=O
**Result** 60

**Query** Proceed to CCc1nc2ccc(NCCN(C)C)c3c(=O)c4ccccc4n1c23
**Result** -34

**Query** Proceed to C#CCN(Cc1ccc2nc(N)[nH]c(=O)c2c1)c1ccc(C(=O)NC(CCC(=O)O)C(=O)O)cc1 (centres undefined)
**Result** -9

**Query** Proceed to CCCCC/C(=C(\C#N)C(=O)OCC)c1ccccc1
**Result** -4

**Query** Proceed to O=C(C[n+]1ccc2ccccc2c1)c1ccc2ccccc2c1
**Result** -25

**Query** Proceed to COc1cc(O)c(O)c(C(C)(C)C)c1
**Result** 0

**Query** Proceed to Cc1cc(NCCCCCCCCNc2cc(C)nc3cc(N)ccc23)c2ccc(N)cc2n1
**Result** -36

**Query** Proceed to CCC(C)NC1=NCC(C)S1 (centres undefined)
**Result** -21

**Query** Proceed to Cc1ccc2c(c1)C1(SC(C)C(=O)N1c1ccc(Cl)cc1)C(=O)N2 (centres undefined)
**Result** 1

**Query** Proceed to Cn1c(=O)c2c(nc(N)n2C2OC(CO)C(O)C2O)n(C)c1=O (centres undefined)
**Result** -4

**Query** Proceed to CCOC(=N)c1ccc(O)c(OC)c1
**Result** 6

**Query** Proceed to CCC(C)OC(=O)Nc1ccc(C)c(NC(=O)OC(C)CC)c1 (centres undefined)
**Result** 1

**Query** Proceed to CN(C)CCCCN1c2ccccc2Sc2ccc(N=[N+]=[N-])cc21
**Result** -15

**Query** Proceed to COc1cccc2c1C(=O)c1c(O)c3c(c(O)c1C2=O)C[C@@](O)(C(C)=O)C[C@@H]3OC1CC(OC(C)=O)C(OC(C)=O)C(C)O1 (some centres undefined)
**Result** -18

**Query** Proceed to CCOc1ccccc1N=Cc1c2ccccc2cc2ccccc12
**Result** 34

**Query** Proceed to Cc1ccccc1N=C(NO)c1ccccc1
**Result** -3

**Query** Proceed to CCOc1c(N=Nc2ccccc2OC)c(C)nn1C(=S)S
**Result** 3

**Query** Proceed to Cc1ccc(Cl)cc1NC(=O)OCCN(C)C(=O)Nc1cc(Cl)ccc1C
**Result** -27

**Query** Proceed to O=C(O)c1cc2ccccc2c2c1C(=O)c1ccccc1-2
**Result** 11

**Query** Proceed to COc1nc2c(c(=O)n1C)N=C(c1ccccc1)[C@H](C(CC(=O)c1ccccc1)c1ccccc1)C(c1ccccc1)N2 (some centres undefined)
**Result** -8

**Query** Proceed to CN(C)[C@@H]1C(=O)C(C(N)=O)=C(O)[C@@]2(O)C(=O)C3=C(O)c4c(O)cccc4C[C@H]3C[C@@H]12
**Result** 14

**Query** Proceed to C(=Nc1ccc(-c2cc(-c3ccccc3)nc3ccc4ccccc4c23)cc1)c1ccccc1
**Result** -21
